Data origin, for the record: paper PMC6600263

# assayComment: pharmacokinetics of 16 ginsenosides in rat plasma after oral administration of RGS
# Type: in vivo
# protocolConditions: SD, rat, plasma, po, 100 mg/kg, model (scopolamine 1 mg/kg i.p.-treated) rats, oral RGS single dose 100 mg/kg, plasma, mean ± S.D., n = 5; read-out: C Max
measurementType: Cmax

{"columns": ["molecule", "measurementType", "measured"],
 "data": [
  ["CC(C)=CCCC(C)(OC1OC(CO)C(O)C(O)C1O)C1CCC2(C)C1C(O)CC1C3(C)CCC(OC4OC(CO)C(O)C(O)C4OC4OC(CO)C(O)C(O)C4O)C(C)(C)C3CCC12C (centres unmarked)", "Cmax", "45.6 ng/g"],
  ["CC(C)=CCCC(C)(OC1OC(COC2OCC(O)C(O)C2O)C(O)C(O)C1O)C1CCC2(C)C1C(O)CC1C3(C)CCC(OC4OC(CO)C(O)C(O)C4OC4OC(CO)C(O)C(O)C4O)C(C)(C)C3CCC12C (centres unmarked)", "Cmax", "17.2 ng/g"],
  ["CC(C)=CCCC(C)(OC1OC(CO)C(O)C(O)C1O)C1CCC2(C)C1C(O)CC1C3(C)CCC(O)C(C)(C)C3C(OC3OC(CO)C(O)C(O)C3O)CC12C (centres unmarked)", "Cmax", "32.2 ng/g"],
  ["CC(C)=CCC=C(C)C1CCC2(C)C1C(O)CC1C3(C)CCC(OC4OC(CO)C(O)C(O)C4OC4OC(CO)C(O)C(O)C4O)C(C)(C)C3CCC12C (centres unmarked)", "Cmax", "37.3 ng/g"],
  ["CC(C)=CCCC(C)(OC1OC(COC2OC(CO)C(O)C(O)C2O)C(O)C(O)C1O)C1CCC2(C)C1C(O)CC1C3(C)CCC(OC4OC(CO)C(O)C(O)C4OC4OC(CO)C(O)C(O)C4O)C(C)(C)C3CCC12C (centres unmarked)", "Cmax", "34.8 ng/g"]
]}

----------
# assayComment: pharmacokinetics of 16 ginsenosides in rat plasma after oral administration of RGS
# Assay type: in vivo
# protocolConditions: SD, rat, plasma, po, 100 mg/kg, normal rats, oral RGS single dose 100 mg/kg, plasma, mean ± S.D., n = 5; read-out: T Max

{"columns": ["compound", "unitOfMeasure", "Tmax"],
 "data": [
  ["CC(C)=CCCC(C)(OC1OC(COC2OC(CO)C(O)C2O)C(O)C(O)C1O)C1CCC2(C)C1C(O)CC1C3(C)CCC(OC4OC(CO)C(O)C(O)C4OC4OC(CO)C(O)C(O)C4O)C(C)(C)C3CCC12C (stereo not drawn)", "h", 1.5],
  ["CC(C)=CCCC(C)(OC1OC(COC2OCC(O)C(O)C2O)C(O)C(O)C1O)C1CCC2(C)C1C(O)CC1C3(C)CCC(OC4OC(CO)C(O)C(O)C4OC4OC(CO)C(O)C(O)C4O)C(C)(C)C3CCC12C (stereo not drawn)", "h", 1.5],
  ["CC(C)=CCCC(C)(OC1OC(CO)C(O)C(O)C1O)C1CCC2(C)C1C(O)CC1C3(C)CCC(O)C(C)(C)C3C(OC3OC(CO)C(O)C(O)C3O)CC12C (stereo not drawn)", "h", 4]
]}

----------
# assayComment: pharmacokinetics of 16 ginsenosides in rat plasma after oral administration of RGS
# Type: in vivo
# protocolConditions: SD, rat, plasma, po, 100 mg/kg, normal rats, oral RGS single dose 100 mg/kg, plasma, mean ± S.D., n = 5; read-out: C Max
We use 30 ng/g as the dividing line for Cmax: on or above the line is 1.0, below is 0.0.

{"columns": ["compound", "group"],
 "data": [
  ["CC(C)=CCCC(C)(OC1OC(CO)C(O)C(O)C1O)C1CCC2(C)C1C(O)CC1C3(C)CCC(OC4OC(CO)C(O)C(O)C4OC4OC(CO)C(O)C(O)C4O)C(C)(C)C3CCC12C (centres unmarked)", 1.0],
  ["CC(C)=CCCC(C)(OC1OC(CO)C(O)C(O)C1O)C1CCC2(C)C1C(O)CC1C3(C)CCC(O)C(C)(C)C3C(OC3OC(CO)C(O)C(O)C3OC3OC(C)C(O)C(O)C3O)CC12C (centres unmarked)", 0.0],
  ["CC(C)=CCC=C(C)C1CCC2(C)C1C(O)CC1C3(C)CCC(OC4OC(CO)C(O)C(O)C4OC4OC(CO)C(O)C(O)C4O)C(C)(C)C3CCC12C (centres unmarked)", 1.0],
  ["CC(C)=CCCC(C)(OC1OC(COC2OCC(O)C(O)C2O)C(O)C(O)C1O)C1CCC2(C)C1C(O)CC1C3(C)CCC(OC4OC(CO)C(O)C(O)C4OC4OC(CO)C(O)C(O)C4O)C(C)(C)C3CCC12C (centres unmarked)", 0.0],
  ["CC(C)=CCCC(C)(OC1OC(COC2OC(CO)C(O)C(O)C2O)C(O)C(O)C1O)C1CCC2(C)C1C(O)CC1C3(C)CCC(OC4OC(CO)C(O)C(O)C4OC4OC(CO)C(O)C(O)C4O)C(C)(C)C3CCC12C (centres unmarked)", 1.0],
  ["CC(C)=CCCC(C)(OC1OC(CO)C(O)C(O)C1O)C1CCC2(C)C1C(O)CC1C3(C)CCC(O)C(C)(C)C3C(OC3OC(CO)C(O)C(O)C3O)CC12C (centres unmarked)", 0.0],
  ["C=C(CCC=C(C)C)C1CCC2(C)C1C(O)CC1C3(C)CCC(OC4OC(CO)C(O)C(O)C4OC4OC(CO)C(O)C(O)C4O)C(C)(C)C3CCC12C (centres unmarked)", 1.0],
  ["CC(C)=CCCC(C)(OC1OC(COC2OC(CO)C(O)C2O)C(O)C(O)C1O)C1CCC2(C)C1C(O)CC1C3(C)CCC(OC4OC(CO)C(O)C(O)C4OC4OC(CO)C(O)C(O)C4O)C(C)(C)C3CCC12C (centres unmarked)", 0.0]
]}
